Test system: MDA-MB-435
Assay: NCI tumour cell line growth inhibition, 48 h
OBSERVED PROPERTY: TGI (µM)
Field format: number, assumed µM, no unit text.

Some molecules with recorded TGI:
[[record]]
smiles_input = "O=c1[nH]c2cc(C(F)(F)F)ccc2nc1CBr"
measurement_units = "µM"
assay_result = 26.2

[[record]]
smiles_input = "CCN(CC)c1ccc(N=O)cc1"
measurement_units = "µM"
assay_result = 11.9

[[record]]
smiles_input = "COc1cc(C(=O)/C=C/c2c(-c3cccs3)nc3sc(C)cn23)cc(OC)c1OC"
measurement_units = "µM"
assay_result = 31.6

[[record]]
smiles_input = "CC#Cc1nc2ccccc2c(=O)[nH]1"
measurement_units = "µM"
assay_result = 5.35

[[record]]
smiles_input = "N#CC(C#N)=C/C=C(\\Sc1ccc(F)c(Cl)c1)c1ccc(Cl)cc1"
measurement_units = "µM"
assay_result = 4.29


Next:
Find the recorded TGI belonging to `Nc1ccc2c(c1)Cc1cc(Cl)c(Cl)cc1-2` and report it.
4.51
